tgt: Beta Secretase enzyme (BACE) (Homo sapiens, UniProt P56817)
Sequence (P56817 46-501, species assumed): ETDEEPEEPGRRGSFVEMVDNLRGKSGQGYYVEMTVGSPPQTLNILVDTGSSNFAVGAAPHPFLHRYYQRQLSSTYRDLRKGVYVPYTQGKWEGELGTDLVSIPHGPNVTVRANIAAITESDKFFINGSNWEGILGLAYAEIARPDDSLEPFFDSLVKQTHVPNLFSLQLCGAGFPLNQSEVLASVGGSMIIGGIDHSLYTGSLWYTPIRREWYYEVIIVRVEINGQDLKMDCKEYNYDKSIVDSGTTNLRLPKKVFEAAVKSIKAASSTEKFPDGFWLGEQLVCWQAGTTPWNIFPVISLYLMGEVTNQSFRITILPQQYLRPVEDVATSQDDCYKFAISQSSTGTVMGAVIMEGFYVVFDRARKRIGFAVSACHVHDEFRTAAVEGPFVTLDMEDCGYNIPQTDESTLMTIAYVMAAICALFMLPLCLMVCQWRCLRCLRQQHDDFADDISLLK
assay.explanation: In vitro enzymatic BACE FRET (fluorescence resonance energy transfer) assay
Format: biochemical
test.parameters: average IC50, enzyme assay; read-out: BACE 1 FRET assay
outcome.measure: IC50 (nM)

Guide cases for IC50, answers given:
CC(C)N(C)c1cc2c(cn1)Oc1ccc(-c3cccnc3)cc1[C@@]21COC(N)=N1 : 5.6
NC1=N[C@@]2(CS1)c1cc(-c3cccnc3F)ccc1Oc1cnc(N3CCC(F)(F)C3)cc12 (single isomer, unassigned) : 0.3

(A) Cc1cncc(-c2ccc3c(c2)[C@@]2(COC(N)=N2)c2cc(-c4ccnc(C#N)c4)ncc2O3)c1
(B) CC(C)(C)/C=C/c1cc2c(cn1)Oc1ccc(-c3ccc(F)nc3)cc1[C@@]21COC(N)=N1
(C) NC1=N[C@@]2(CS1)c1cc(-c3cncc(F)c3)ccc1Oc1cnc(C3=CCOCC3)cc12 [Example 592]
(D) NC1=N[C@@]2(CO1)c1cc(Br)ccc1Oc1c2cc(Cl)nc1F
Q: hey, can you rank those compounds up there by IC50? biggest number first please // format: requested-order list of labels
A: D, A, B, C

* * *

tgt: Beta Secretase enzyme (BACE) (Homo sapiens, UniProt P56817)
assay.explanation: In vitro enzymatic BACE FRET (fluorescence resonance energy transfer) assay
Type: biochemical
test.parameters: average IC50, enzyme assay; read-out: BACE 1 FRET assay
pIC50: −log10 of the molar value.
outcome.measure: pIC50

COc1ccc(Cl)c(-c2ccc3c(c2)[C@@]2(COC(N)=N2)c2cc(C4=CCOCC4)cnc2O3)c1 : 8.66

(a) N#Cc1cc(-c2ccc3c(c2)[C@@]2(CSC(N)=N2)c2cc(C4=CCOCC4)cnc2O3)ccc1F
(b) COc1nc(-c2ccncc2)cc2c1Oc1ccc(-c3cccnc3F)cc1[C@@]21COC(N)=N1
(c) COc1cccc(Nc2ccc3c(c2)[C@@]2(COC(N)=N2)c2cc(C4=CCOCC4)cc(F)c2O3)c1
Q: Order the records, beginning with the lowest pIC50 and ending with the highest. // format: requested-order list of labels
A: c, b, a

(P) N#Cc1cccc(-c2ccc3c(c2)[C@@]2(COC(N)=N2)c2cc(N4CC[C@H](F)C4)nc(F)c2O3)c1
(Q) NC1=N[C@@]2(CO1)c1cc(-c3cccnc3)ccc1Oc1cnc(N3CC[C@H](F)C3)cc12
(R) Cn1cc(-c2cnc3c(c2)[C@]2(COC(N)=N2)c2c(ccc(-c4cccnc4F)c2F)O3)cn1
(S) CC#Cc1cnc(F)c(-c2ccc3c(c2)[C@@]2(COC(N)=N2)c2cc(-c4cnn(C)c4)cnc2O3)c1
(T) CC1(C#Cc2cnc3c(c2)[C@]2(COC(N)=N2)c2cc(-c4ccc(F)nc4)ccc2O3)COC1
Q: hey, can you rank those molecules up there by pIC50? biggest number first please // format: requested-order list of labels
A: S, P, R, T, Q
(S: 9.52, P: 9.30, R: 9.05, T: 8.59, Q: 8.12)

* * *

System: Aβ40 in conditioned medium of cells stably expressing Amyloid Precursor Protein (APP)
assay.explanation: In vitro BACE cell-based assay (Aβ40 in conditioned medium, sandwich ELISA)
test.parameters: Homo sapiens, HEK293, average IC50; read-out: HEK cell assay
outcome.measure: IC50 (µM)

NC1=N[C@@]2(CO1)c1cc(-c3cccnc3F)ccc1Oc1c(F)cc(-c3cnccn3)cc12 [Example 205] : 0.0101

(1) COC(C)(C)COc1cnc2c(c1)[C@@]1(COC(N)=N1)c1cc(-c3cccc(C(F)(F)F)c3)ccc1O2 [Example 316]
(2) NC1=NC2(CO1)c1cc(-c3cccnc3F)ccc1Oc1c2cc(C#Cc2cccnc2)nc1F (stereo not shown) [Example 735]
(3) CC1(C#Cc2cc3c(c(F)n2)Oc2ccc(-c4cccnc4F)cc2C32COC(N)=N2)COC1 (stereo not shown) [Example 733]
Q: Order the records, beginning with the lowest IC50 and ending with the highest. // format: requested-order list of labels
A: 3, 2, 1
(3: 0.018 µM, 2: 0.131 µM, 1: 2.1 µM)

* * *

tgt: Beta Secretase enzyme (BACE) (Homo sapiens, UniProt P56817)
assay.explanation: In vitro enzymatic BACE FRET (fluorescence resonance energy transfer) assay
Type: biochemical
test.parameters: average IC50, enzyme assay; read-out: BACE 1 FRET assay
outcome.measure: IC50 (nM)

Guide cases for IC50, answers given:
CC#Cc1cncc(-c2ccc3c(c2)[C@@]2(CSC(N)=N2)c2cc(-c4cncc(C#CC)c4)cnc2O3)c1 : 1.8
CC#Cc1cncc(-c2ccc3c(c2)[C@@]2(COC(N)=N2)c2cc(N4CCOCC4)cc(F)c2O3)c1 : 0.6

(I) NC1=N[C@]2(CO1)c1cc(-c3cccnc3F)c(F)cc1Oc1ncc(-c3ccc(F)nc3)cc12
(II) NC1=N[C@@]2(CO1)c1cc(-c3cncc(C#CC4CC4)c3)ccc1Oc1cnc(-c3ccnc(F)c3)cc12
Q: # returns the entry with the larger IC50; inputs I and II Returns: label corresponding to the selected item.
A: I

* * *

Test system: Aβ40 in conditioned medium of cells stably expressing Amyloid Precursor Protein (APP)
assay.explanation: In vitro BACE cell-based assay (Aβ40 in conditioned medium, sandwich ELISA)
test.parameters: Homo sapiens, HEK293, average IC50; read-out: HEK cell assay
outcome.measure: IC50 (nM)

NC1=N[C@@]2(CS1)c1cc(-c3cccnc3F)ccc1Oc1c2cc(C2CCOCC2)nc1F : 7
CC#Cc1cncc(-c2ccc3c(c2)[C@@]2(COC(N)=N2)c2cc(-c4ccncc4)nc(F)c2O3)c1 : 5
CC1(COc2cc3c(cc2F)Oc2ccc(-c4cncc(F)c4)cc2[C@@]32COC(N)=N2)COC1 : 21.5

(P) NC1=N[C@@]2(CO1)c1cc(-c3cccnc3F)ccc1Oc1cc(F)c(-c3ccncc3)cc12
(Q) NC1=N[C@@]2(CO1)c1cc(-c3cncc(F)c3)ccc1Oc1cnc(-c3cncc(F)c3)cc12
Q: # returns the entry with the larger IC50; inputs P and Q Returns: label corresponding to the selected item.
A: P
(P: 61.5 nM, Q: 22.8 nM)

* * *

tgt: Beta Secretase enzyme (BACE) (Homo sapiens, UniProt P56817)
assay.explanation: In vitro enzymatic BACE FRET (fluorescence resonance energy transfer) assay
Format: biochemical
test.parameters: average IC50, enzyme assay; read-out: BACE 1 FRET assay
pIC50: −log10 of the molar value.
outcome.measure: pIC50

COc1nc(N2CCC(F)(F)CC2)cc2c1Oc1ccc(-c3cccnc3F)cc1[C@@]21COC(N)=N1 : 8.38
NC1=N[C@]2(CO1)c1cc(N3CCOCC3)ccc1Oc1cc(F)c(-c3cncnc3)cc12 : 7.79
Cc1cc(-c2cc3c(cn2)Oc2ccc(-c4ccccc4)cc2[C@@]32COC(N)=N2)on1 : 7.10
CC1(CCc2cc(F)c3c(c2)[C@]2(COC(N)=N2)c2cc(-c4cccnc4F)ccc2O3)COC1 : 9.30
COc1nc(-c2cccnc2)cc2c1Oc1ccc(-c3cccnc3)cc1[C@@]21COC(N)=N1 : 8.15
CC1(C#Cc2cc(F)c3c(c2)C2(COC(N)=N2)c2cc(-c4cncc(F)c4)ncc2O3)COC1 (stereo not shown) : 7.74
NC1=N[C@@]2(CO1)c1cc(-c3cccnc3F)ccc1Oc1c2cc(N2CC[C@H](F)C2)nc1F : 9.52
CC(C)(C)C#Cc1cnc2c(c1)[C@@]1(COC(N)=N1)c1cc(-c3cncnc3)c(F)cc1O2 : 6.67

(I) NC1=N[C@@]2(CO1)c1cc(-c3cccnc3O)ccc1Oc1cnc(-c3ccnc(F)c3)cc12
(II) NC1=N[C@@]2(CO1)c1cc(-c3cncc(F)c3)ccc1Oc1c(F)cc(C3=CCOCC3)cc12
Q: # compare pIC50 for I vs II ; return the one with the smaller value Returns: label corresponding to the selected item.
A: I

(A) NC1=N[C@@]2(CO1)c1cc(-c3cccnc3F)ccc1Oc1c(F)cc(-c3ccncn3)cc12
(B) NC1=N[C@@]2(CO1)c1cc(-c3cccnc3F)ccc1Oc1c(F)cc(-c3cncnc3)cc12
(C) COc1cc(F)c2c(c1)[C@]1(COC(N)=N1)c1cc(Br)c(F)cc1O2
(D) Cc1cc(-c2cc3c(c(F)n2)Oc2ccc(-c4cccnc4F)cc2[C@@]32COC(N)=N2)on1
Q: Order the records, beginning with the lowest pIC50 and ending with the highest. // format: requested-order list of labels
A: C, B, A, D
(C: 6.05, B: 8.55, A: 8.85, D: 9.10)

* * *

Test system: Aβ40 in conditioned medium of cells stably expressing Amyloid Precursor Protein (APP)
assay.explanation: In vitro BACE cell-based assay (Aβ40 in conditioned medium, sandwich ELISA)
test.parameters: Homo sapiens, HEK293, average IC50; read-out: HEK cell assay
Experimental: In Vitro BACE Cell-Based Assay The cell-based assay measures inhibition or reduction of Aβ40 in conditioned medium of test compound treated cells expressing amyloid precursor protein. Cells stably expressing Amyloid Precursor Protein (APP) were plated at a density of 40K cells/well in 96 well plates (Costar). […] The IC50 of the compound was calculated from the percent of control or percent inhibition of Aβ 40 as a function of the concentration of the test compound. […]
outcome.measure: IC50 (nM)

Guide cases for IC50, answers given:
CC1(C)CC(c2cc3c(cn2)Oc2ccc(-c4ccc(F)nc4)cc2[C@@]32COC(N)=N2)=CCO1 [Example 370] : 23.7
CC#Cc1cncc(-c2ccc3c(c2)[C@@]2(CSC(N)=N2)c2cc(C4=CCOCC4)cnc2O3)c1 [Example 772] : 2
NC1=N[C@@]2(CO1)c1cc(-c3cccnc3)ccc1Oc1c2cc(-c2ccnc(F)c2)c(F)c1F [Example 1013] : 100

(A) NC1=N[C@]2(CO1)c1cc(-c3cccnc3)ccc1Oc1c2cc(C2=CCOCC2)c(F)c1F (single isomer, unassigned) [Example 1006]
(B) NC1=N[C@@]2(CO1)c1cc(Oc3cc(Cl)ccn3)ccc1Oc1c(F)cc(N3CCOCC3)cc12 [Example 1062]
Q: # compare IC50 for A vs B ; return the one with the smaller value Returns: label corresponding to the selected item.
A: B
(B: 374 nM, A: 627 nM)

(I) COCCN(C)c1cc(F)c2c(c1)[C@]1(COC(N)=N1)c1cc(-c3cccnc3F)ccc1O2 [Example 207]
(II) NC1=N[C@@]2(CO1)c1cc(-c3ccc(F)nc3)ccc1Oc1cnc(C3CCOCC3)cc12 [Example 363]
Q: # returns the entry with the larger IC50; inputs I and II Returns: label corresponding to the selected item.
A: II

Source listed as patent US8883782B2.
